test system: H3255; experiment: relative viability (nuclei count vs DMSO), 5 days (fraction); higher = more cells survive; settings: first compound 8 µM
PARAMETER: relative viability

The molecule listed as CCCCCCCCCCCC1=C(O)C(=O)C=C(O)C1=O [Embelin] + Cc1cc(Nc2cc(N3CCN(C)CC3)nc(Sc3ccc(NC(=O)C4CC4)cc3)n2)n[nH]1 [Tozasertib] (partner 0.1 µM) has a reported relative viability of 0.851

The molecule listed as CCCCCCCCCCCC1=C(O)C(=O)C=C(O)C1=O [Embelin] + O=C(CCCCCCC(=O)Nc1ccccc1)NO [Vorinostat] (partner 1 µM) has a reported relative viability of 0.948

The molecule listed as CCCCCCCCCCCC1=C(O)C(=O)C=C(O)C1=O [Embelin] + NC(=O)Nc1cc(-c2cccc(F)c2)sc1C(=O)N[C@H]1CCCNC1 [AZD7762] (partner 0.2 µM) has a reported relative viability of 0.913

The molecule listed as CCCCCCCCCCCC1=C(O)C(=O)C=C(O)C1=O [Embelin] + CS(=O)(=O)CCNCc1ccc(-c2ccc3ncnc(Nc4ccc(OCc5cccc(F)c5)c(Cl)c4)c3c2)o1 [Lapatinib] (partner 2 µM) has a reported relative viability of 0.281

The molecule listed as CCCCCCCCCCCC1=C(O)C(=O)C=C(O)C1=O [Embelin] + Nc1nc2[nH]cc(CCc3ccc(C(=O)N[C@@H](CCC(=O)O)C(=O)O)cc3)c2c(=O)[nH]1 [Pemetrexed] (partner 0.2 µM) has a reported relative viability of 0.585

The molecule listed as CCCCCCCCCCCC1=C(O)C(=O)C=C(O)C1=O [Embelin] + CC(=O)c1c(C)c2cnc(Nc3ccc(N4CCNCC4)cn3)nc2n(C2CCCC2)c1=O [Palbociclib] (partner 0.5 µM) has a reported relative viability of 0.295

The molecule listed as CCCCCCCCCCCC1=C(O)C(=O)C=C(O)C1=O [Embelin] + C[C@@H](Oc1cc(-c2cnn(C3CCNCC3)c2)cnc1N)c1c(Cl)ccc(F)c1Cl [Crizotinib] (partner 1 µM) has a reported relative viability of 1.03
